# Mean % WT Binding listing for each entry below
# Assay System: human CD33 Q87A (human, UniProt P20138 18-364)
# Sequence (P20138 18-364 Q87A limits assumed): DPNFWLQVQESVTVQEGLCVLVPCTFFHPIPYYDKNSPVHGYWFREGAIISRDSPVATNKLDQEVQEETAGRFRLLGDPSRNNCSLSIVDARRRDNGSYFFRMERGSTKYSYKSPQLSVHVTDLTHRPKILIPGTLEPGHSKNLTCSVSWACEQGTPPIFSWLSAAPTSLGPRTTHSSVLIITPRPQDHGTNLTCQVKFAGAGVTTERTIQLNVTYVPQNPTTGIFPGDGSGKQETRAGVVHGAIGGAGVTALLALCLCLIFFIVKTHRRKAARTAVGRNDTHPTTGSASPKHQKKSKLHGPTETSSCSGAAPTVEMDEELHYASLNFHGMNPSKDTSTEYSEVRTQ
# Experiment Summary: alanine scan, flow cytometry;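 note: HEK293-T cells transiently expressing single-residue alanine mutants of CD33 (alanine swapped to serine), antibody binding read by fluorescence in duplicate, background-subtracted, expressed relative to wild-type CD33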
Give me the value, and tack the unit on after it.

Reference set (3 entries):
Refmab #1 (antibody, V domains shown, Full-length format is human IgG1 (Absolute Antibody Ab00283-10.0); The alanine scan used IgG or Fab; also called hP67.6) VH: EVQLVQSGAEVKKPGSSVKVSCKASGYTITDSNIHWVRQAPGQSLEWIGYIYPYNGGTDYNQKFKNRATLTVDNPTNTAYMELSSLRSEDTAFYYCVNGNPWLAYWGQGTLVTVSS VL: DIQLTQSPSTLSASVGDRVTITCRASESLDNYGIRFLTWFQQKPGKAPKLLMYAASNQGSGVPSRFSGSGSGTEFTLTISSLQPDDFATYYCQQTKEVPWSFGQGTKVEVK    91 % WT
Refmab #3 (antibody, V domains shown, Full-length format is human IgG1 Fc silent (PG-LALA); The alanine scan used IgG or Fab) VH: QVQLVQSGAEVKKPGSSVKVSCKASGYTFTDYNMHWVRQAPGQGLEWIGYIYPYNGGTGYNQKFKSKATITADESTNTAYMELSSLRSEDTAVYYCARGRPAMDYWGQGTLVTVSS VL: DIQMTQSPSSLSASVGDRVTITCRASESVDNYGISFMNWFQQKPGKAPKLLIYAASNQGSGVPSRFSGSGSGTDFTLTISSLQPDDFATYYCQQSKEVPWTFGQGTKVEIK    161 % WT
Refmab #2 (antibody, V domains shown, Full-length format is human IgG1 Fc silent (PG-LALA); The alanine scan used IgG or Fab) VH: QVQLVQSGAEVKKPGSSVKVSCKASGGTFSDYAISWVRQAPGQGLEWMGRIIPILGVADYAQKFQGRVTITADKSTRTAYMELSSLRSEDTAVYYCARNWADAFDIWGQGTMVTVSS VL: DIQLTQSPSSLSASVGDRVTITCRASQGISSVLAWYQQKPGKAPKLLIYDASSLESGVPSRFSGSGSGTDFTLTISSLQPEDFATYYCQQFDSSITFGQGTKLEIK    118 % WT

// next item, Mean % WT Binding requested
Exercise: Tell me its Mean % WT Binding given Refmab #4 (antibody, V domains shown, Full-length format is human IgG1 Fc silent (PG-LALA); The alanine scan used IgG or Fab) VH: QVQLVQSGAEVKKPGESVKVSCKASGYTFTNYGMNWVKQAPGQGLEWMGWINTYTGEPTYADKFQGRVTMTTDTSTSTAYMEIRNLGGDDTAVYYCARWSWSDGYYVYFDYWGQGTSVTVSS VL: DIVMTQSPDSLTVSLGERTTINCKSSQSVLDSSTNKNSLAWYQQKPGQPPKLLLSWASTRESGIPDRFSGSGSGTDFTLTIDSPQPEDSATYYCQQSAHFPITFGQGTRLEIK as the entry.
Key: 94.2 % WT
